Recorded values, source patent US20180305450A1.

I'd be grateful if you could share measured Fold IC50 pH 7.4 (Variant v Par0067) for these entries.
systemName: T1, recombinant biotinylated human PAR2 extracellular domain (residues 1-75), N-terminal AviTag, C-terminal Flag … (human, UniProt P55085 26-75, biotin on the AviTag (enzymatic biotinylation))
T1 construct: also called Bio-human-PAR2 ECD; human PAR2 ECD; not shown: N-terminal AviTag (Avidity LLC); C-terminal Flag and poly Histidine tags
T1 sequence (P55085 26-75): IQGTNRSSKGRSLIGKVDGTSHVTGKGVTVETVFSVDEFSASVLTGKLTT
procedureDetails: HTRF competition with Dylight650-Par0067 IgG, IgG
Protocol: Parent Par0067 IgG (used as a reference/control in all assays) was pre-diluted to give a 2000 nM stock in each of the two different pH assay buffers (in order to give a top final assay IgG concentration of 500 nM). All test, or other reference/control IgG were tested from a top final assay concentration of ¼ of the neat undiluted sample (i.e. no pre-dilution step was performed). […]
Note: unit fold is implicit; provide only the numeric part.

Please list Fold IC50 pH 7.4 (Variant v Par0067) recorded for the binder PaB670153 IgG (antibody, V domains shown, IgG1-TM (L234F, L235E, P331S), human lambda light chain) VH: EVQLLESGGGLVQPGGSLRLSCAASGFTFSSYAMNWVRQAPGKGLEWVSTISYHGHHISYADSHHHRFTISRDNSKNTLYLQMNSLRAEDTAVYYCARINNDPMDVWGQGTLVTVSS VL: SIELTQPPSVSVSPGQTASITCSGDNLGKKYVQWYQQKPGQSPVLVIYDDSNRPSGIPERFSGSNSGNTATLTISGTQAMDEADYYCHTWDHHHTTGEHNVFGGGTKLTVL
111

Look up and state reported Fold IC50 pH 7.4 (Variant v Par0067) for PaB670152 IgG (antibody, V domains shown, IgG1-TM (L234F, L235E, P331S), human lambda light chain) VH: EVQLLESGGGLVQPGGSLRLSCAASGFTFSSYAMNWVRQAPGKGLEWVSTISYSGSLISYADSVKGRFTISRDNSKNTLYLQMNSLRAEDTAVYYCARIHHDPMDVWGQGTLVTVSS VL: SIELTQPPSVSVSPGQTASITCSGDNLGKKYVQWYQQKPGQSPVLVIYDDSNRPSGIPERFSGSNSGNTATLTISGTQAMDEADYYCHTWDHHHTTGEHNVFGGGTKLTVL
526

Identify the reported Fold IC50 pH 7.4 (Variant v Par0067) for the following entry. PaB670161 IgG (antibody, V domains shown, IgG1-TM (L234F, L235E, P331S), human lambda light chain) VH: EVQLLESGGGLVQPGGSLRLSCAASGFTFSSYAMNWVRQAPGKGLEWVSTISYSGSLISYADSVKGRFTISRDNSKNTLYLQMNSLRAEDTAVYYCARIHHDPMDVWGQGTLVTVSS VL: SIELTQPPSVSVSPGQTASITCSGDNLGKKYVQWYQQKPGQSPVLVIYDDSNRPSGIPERFSGSNSGNTATLTISGTQAMDEADYYCHTWDGHHTTGETNHFGGGTKLTVL
57.4
